TARGET_OR_TEST_SYSTEM: T1, human IL-13 variant (R130Q) (human, UniProt P35225 35-146)
T1 construct: called R110Q in the assay descriptions (mature numbering); also called h IL-13v; hIL-13v
T1 sequence (P35225 35-146 limits assumed, stated change not applied): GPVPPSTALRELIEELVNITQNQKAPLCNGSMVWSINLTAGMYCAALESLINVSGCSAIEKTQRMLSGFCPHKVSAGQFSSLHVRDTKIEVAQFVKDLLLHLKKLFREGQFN
METHOD: SPR (Biacore), mAb captured, IL-13 as analyte
OUTCOME_MEASURE: kon (M⁻¹ s⁻¹)
Only the number, expressed in M⁻¹ s⁻¹, is required.

GET /value?item= 3E5 (antibody, V domains shown) VH: QVQLKESGPGLVAPSQSLSITCTVSGFSLTGSSINWVRQPPGKGLEWLGMIWGDGRIDYNSVLKSRLSISKDSSKSQVFLKMNSLQADDTARYYCARDGYYPYAMVYWGQGTSVTVSS VL: NIVLTQSPASLAVSLGQRATIFCRASESVDSYGNSFMHWYQQKSGQPPKLLIYLASNLESGVPARFSGSGSRTDFTLTIDPVEADDAATFYCQQNNENPRTFGGGTKLEIKR &field=kon returns 1.85e+06

GET /value?item= 13C5 (antibody, V domains shown, also called murine 13C5) VH: QVTLKESGPGILQPSQTLSLTCSFSGFSLSTSDMGVDWIRQPSGKGLEWLAHIWWDDVKRYNPALKSRLTISKDTSSSQVFLMLASVDTADTATYYCARTVSSGYIYYAMDYWGQGTSVTVSS VL: DIQMTQTASSLSASLGDRVTISCRASQDIRNYLNWYQRKPDGTVKLLIFYTSKLHSGVPSRFSGSGSGTDYSLTIRNLEQEDIATYFCQQGNTLPLTFGGGTKLEIKR &field=kon returns 574000

From: patent US20110165066A1
